Biological target: human α4β2 nAChRs (Homo sapiens, UniProt P17787+P43681)
Sequence (P43681 29-627): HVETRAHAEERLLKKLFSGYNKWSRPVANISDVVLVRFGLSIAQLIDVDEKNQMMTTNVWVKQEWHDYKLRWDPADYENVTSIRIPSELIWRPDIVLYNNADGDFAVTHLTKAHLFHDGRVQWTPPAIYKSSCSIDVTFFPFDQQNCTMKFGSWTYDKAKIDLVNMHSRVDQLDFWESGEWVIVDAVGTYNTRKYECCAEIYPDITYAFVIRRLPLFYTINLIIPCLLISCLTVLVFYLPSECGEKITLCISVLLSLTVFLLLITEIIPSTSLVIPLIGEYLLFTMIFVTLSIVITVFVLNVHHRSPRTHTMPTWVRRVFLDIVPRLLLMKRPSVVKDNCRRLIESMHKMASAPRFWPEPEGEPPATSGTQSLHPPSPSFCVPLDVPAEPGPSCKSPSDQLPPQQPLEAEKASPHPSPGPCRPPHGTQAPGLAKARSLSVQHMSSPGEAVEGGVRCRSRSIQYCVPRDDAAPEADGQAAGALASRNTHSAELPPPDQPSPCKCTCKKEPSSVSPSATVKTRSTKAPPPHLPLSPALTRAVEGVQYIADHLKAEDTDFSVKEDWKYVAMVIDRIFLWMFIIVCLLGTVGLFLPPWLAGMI
Sequence (P17787 26-502): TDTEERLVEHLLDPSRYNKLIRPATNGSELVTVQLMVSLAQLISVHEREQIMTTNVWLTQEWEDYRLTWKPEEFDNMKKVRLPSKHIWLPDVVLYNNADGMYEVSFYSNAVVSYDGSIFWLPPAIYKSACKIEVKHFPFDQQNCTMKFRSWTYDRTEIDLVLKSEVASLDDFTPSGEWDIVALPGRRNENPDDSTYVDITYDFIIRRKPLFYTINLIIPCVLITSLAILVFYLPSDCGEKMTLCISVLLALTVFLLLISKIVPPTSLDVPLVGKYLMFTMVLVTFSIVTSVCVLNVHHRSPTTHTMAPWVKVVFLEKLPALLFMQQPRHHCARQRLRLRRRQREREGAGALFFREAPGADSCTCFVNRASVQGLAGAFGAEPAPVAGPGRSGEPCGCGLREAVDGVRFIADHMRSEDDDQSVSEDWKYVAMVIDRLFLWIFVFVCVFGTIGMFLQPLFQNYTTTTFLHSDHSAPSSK
Assay: Nicotinic receptor radioligand binding SPA, [3H]-epibatidine, α4β2
Conditions: HEK-293 membranes, 1 nM [3H]-epibatidine
pKi: −log10 of the molar value.

>  <compound>
Fc1cc(C2=CC3CNCC(C2)C3)cc(-c2ccoc2)c1 (stereo not shown)

>  <target.entity>
human α4β2 nAChRs (Homo sapiens, UniProt P17787+P43681)

>  <pKi>
8.27

$$$$
